- subject of test: Q96FS4
- assay procedure: holdup assay
- Parameters: key: below the threshold = too weak to quantify, mostly under pKd 3.1 to 4
- test conditions: plain residues with an end cap or a label only (N-terminal biotin on a linker: ttds)
property measured: pKd

Examples with their reported pKd follow.
{"binder": "SSLQSLETSV [ATP2B4, P23634]", "pKd": "below the threshold"}
{"binder": "QRQARSETLV [HPV59-E6, Q81964]", "pKd": "below the threshold"}
{"binder": "RPLPRKVSQL [DOCK4, Q8N1I0]", "pKd": "below the threshold"}
{"binder": "RHTTSTETAV [HPV30-E6, P36809]", "pKd": "below the threshold"}

Consider the record given below.
Prompt: Looking for the measured pKd of RLPKIKETTV [FRMPD4, Q14CM0] , can you help?
Completion: below the threshold
